- Assay Explanation: Oral bioavailability in rat at 10 mg/kg
- Format: ADME, organism-based
- Assay Setup: in vivo
Measurement Kind: bioavailability (%)
Lab book: enter the figure in %, no units written.

Return value of bioavailability for input `CN1C(=N)N[C@@]2(c3cc(-c4cccc(C#N)c4)cs3)CN(c3ncc(F)cn3)C[C@H]2C1=O` , no commentary.
97

====

- Assay Explanation: Plasma concentration in rat at 10 mg/kg, po at 6 hrs
- Assay type: ADME, organism-based
- Design: dose 10 mg/kg, route oral
Measurement Kind: concentration at 6 h (µM)
Lab book: enter the figure in µM, no units written.

Return value of concentration at 6 h for input `CN1C(=O)[C@@H]2CN(c3ncccn3)C[C@]2(c2cc(-c3cccc(C#N)c3)cs2)N=C1N` , no commentary.
0.06
